- target_system: α2-GABAA receptor (Rattus norvegicus, UniProt P18508+P23576)
- experiment: Ligand-binding assay, radiolabeled flumazenil competition, rat spinal cord membranes
- setup_conditions: read-out: % Inhibition (10^−5 M), affinity for α2-GABAA receptor
// label = TRUE if inhibition at 10 µM is not less than 90%, otherwise FALSE

Solved entries (count: 5):
* CN(c1cccc(-c2ccnc3c(C(=O)c4cccs4)cnn23)c1)S(=O)(=O)c1ccccc1C#N [Example 82] | FALSE
* CCN(c1cccc(-c2ccnc3c(C(=O)c4ccc(C)cc4)cnn23)c1)S(C)(=O)=O [Example 64] | FALSE
* CCN(c1cccc(-c2ccnc3c(C(=O)c4ccccc4)cnn23)c1)S(=O)(=O)CC [Example 72] | TRUE
* CCN(c1cccc(-c2ccnc3c(C(=O)c4ccc(OC)cc4)cnn23)c1)S(C)(=O)=O [Example 58] | TRUE
* CCN(c1cccc(-c2ccnc3c(C(=O)c4ccccn4)cnn23)c1)S(C)(=O)=O [Example 40] | TRUE

Q) Form field: inhibition at 10 µM at least 90%? Entry: CN(c1cccc(-c2ccnc3c(C(=O)c4cccs4)cnn23)c1)S(=O)(=O)C1CC1 [Example 92]
A) TRUE

Q) Follow-up item: C#CCN(c1cccc(-c2ccnc3c(C(=O)c4cccs4)cnn23)c1)S(=O)(=O)C(C)C [Example 19]
A) TRUE

Q) Follow-up item: CN(c1cccc(-c2ccnc3c(C(=O)c4ccccc4)cnn23)c1)S(C)(=O)=O [Example 69]
A) TRUE

Q) Follow-up item: CC(C)S(=O)(=O)N(C)c1cccc(-c2ccnc3c(C(=O)c4cccs4)cnn23)c1 [Example 23]
A) TRUE

Q) Follow-up item: CCN(c1cccc(-c2ccnc3c(C(=O)c4cccs4)cnn23)c1)S(=O)(=O)CC [Example 18]
A) TRUE

Q) Follow-up item: CN(c1cccc(-c2ccnc3c(C(=O)c4cccs4)cnn23)c1)S(=O)(=O)c1cccc(C#N)c1 [Example 83]
A) TRUE
